TARGET OF ASSAY: UniProt P54762
Sequence (P54762 whole entry, looked up): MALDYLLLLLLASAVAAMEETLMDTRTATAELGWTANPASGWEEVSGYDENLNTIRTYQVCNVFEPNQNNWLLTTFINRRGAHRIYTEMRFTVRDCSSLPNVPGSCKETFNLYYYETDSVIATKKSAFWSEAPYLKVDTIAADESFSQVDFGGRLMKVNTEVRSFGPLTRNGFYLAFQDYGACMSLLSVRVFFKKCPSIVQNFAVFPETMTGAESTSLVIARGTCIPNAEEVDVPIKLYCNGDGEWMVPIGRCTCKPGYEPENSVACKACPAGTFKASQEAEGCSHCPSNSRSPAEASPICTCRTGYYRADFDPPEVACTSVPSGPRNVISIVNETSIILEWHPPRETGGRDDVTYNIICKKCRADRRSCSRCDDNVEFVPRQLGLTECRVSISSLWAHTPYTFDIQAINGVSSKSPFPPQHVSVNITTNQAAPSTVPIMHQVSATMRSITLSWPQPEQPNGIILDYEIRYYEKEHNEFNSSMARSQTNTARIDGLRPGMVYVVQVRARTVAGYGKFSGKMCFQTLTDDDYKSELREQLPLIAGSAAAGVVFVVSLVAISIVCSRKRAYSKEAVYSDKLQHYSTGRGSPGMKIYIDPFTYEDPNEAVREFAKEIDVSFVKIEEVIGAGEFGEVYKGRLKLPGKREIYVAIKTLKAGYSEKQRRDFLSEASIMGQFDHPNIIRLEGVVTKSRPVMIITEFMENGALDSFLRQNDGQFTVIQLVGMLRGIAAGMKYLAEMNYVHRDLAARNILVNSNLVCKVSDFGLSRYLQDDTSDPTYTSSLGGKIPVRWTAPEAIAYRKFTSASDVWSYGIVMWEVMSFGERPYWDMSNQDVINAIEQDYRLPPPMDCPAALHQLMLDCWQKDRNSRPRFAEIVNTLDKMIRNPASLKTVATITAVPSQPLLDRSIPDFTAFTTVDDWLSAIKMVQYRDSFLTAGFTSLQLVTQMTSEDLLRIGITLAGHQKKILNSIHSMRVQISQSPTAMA
PROTOCOL: radiometric filter-binding kinase assay
EXPERIMENTAL PARAMETERS: compound 100.0 µM; ATP 20 µM
REPORTED PROPERTY: inhibition (%)
Write down the numeric answer in % and omit the unit.

Examples with answers:
>>> measured("O=c1c(NC(=S)NCc2ccccc2)cnc2[nH]ccn12")
3
>>> measured("O=c1cc(-c2ccccc2F)nc2[nH]ccn12")
20
>>> measured("O=C(Nc1cnc2[nH]cnn2c1=O)c1ccccc1")
1
>>> measured("CC(C)(C)Nc1c(C2CC2)nc2[nH]cnn12")
0
>>> measured("COc1ccc(-c2cc3c(=O)[nH]cnc3s2)cc1OC")
4
>>> measured("O=C(Nc1cnc2[nH]ccn2c1=O)c1ccccc1")
17

Query block: What is its inhibition for UniProt P54762? Entry: COc1ccc(NC(=S)Nc2cnc3[nH]cnn3c2=O)cn1
Result block: 1

Query block: Next record, please: Nc1nc2cnc(-c3ccccc3)cn2n1
Result block: 48

Query block: Next record, please: CC1CN(c2nc3ccccn3c(=O)c2N)CC(C)O1 (stereo not given)
Result block: 0

Query block: Next record, please: Nc1cnc2c(-c3c(F)cccc3F)cccn2c1=O
Result block: 0

Query block: Next record, please: CC(C)(C)Nc1c(COCc2ccccc2)nc2[nH]cnn12
Result block: 0

Query block: Next record, please: O=C(c1cccc(-c2cc3c(=O)[nH]cnc3s2)c1)N1CCOCC1
Result block: 0

Reference source for all entries: the kinase profiling compilation of Christmann-Franck et al. (2016)
